Where do these numbers come from? They come from the supplement of paper PMC6555819.

Test system: FXR:RXRa (NR concentration 270 nM, RXRa partner concentration 90 nM)
experimentNotes: PBM binding z-score (relative to random genomic background probes); higher = stronger binding; sequences stand for … in GC…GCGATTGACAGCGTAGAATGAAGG
List of PBM binding z-score values.
measuredParameter: PBM binding z-score

>>> df
                          sequencecode  testvalue
 0  CAAACTAGGTCACAGAGGTCAAGGTCCGTGCGTA       7.39
 1  TCTAGTTGGACACGGAGGTCACACACGACGGGTA       2.81
 2  CCGACTGGGGCAAATGTTACCATACTCAGTACGA     0.0667
 3  CGAACTAGGTCATCCAGCACAGTGAATACATTGA       4.05
 4  ACTATTAGTTGAGACGAGGGAAACCGATAGGTTG      0.194
 5  ACAGACAGGTGAGTGAAGGTAGCTCAGCTGGACG    -0.0191
 6  TCTTGTAGATCATTAGAGGTTAAGAAAGTGCGCT       1.06
 7  CCTTACGAGTCACGAGGTTATAGCACGACGAGCG      0.991
 8  ACTAGCAGGCCAAGGGTCGCTCAAGATTAGTCCG     -0.247
 9  ATATCTAGGTTAAGGGTCATTCAGGTTGGTTCGC        5.3
10  CCTAGCTGGTCAGGAGGTCACACACCGGATATGA       3.53
11  CGTCCAAGGACAGAGAGGTCAGTGAATGCCGAGT       1.59
